- System: UACC-62 melanoma
- assay-overview: NCI-60 one-dose screen, 48 h (100 = growth as untreated, 0 = no growth, -100 = all killed)
- assay-context: 10 µM unless noted
Compounds without any hit were thinned out: in the full panel of roughly 83,000, 20% have a hit. Active and inactive are the calls of the source. The calls were made as follows: active = growth percent below 10; inactive = the rest.
The entries below are paired with their reported growth.
reported-endpoint: growth

INSERT INTO measurements (compound, val) VALUES
  ('ClC1=NC(Cl)C(Cl)=N/C1=N\c1ncn[nH]1 (stereo unspecified)', '83.6% (inactive)'),
  ('C#C[C@]1(O)CC[C@H]2[C@@H]3CC=C4c5sc(-c6cccc(Br)c6)nc5CC[C@]4(C)[C@H]3CC[C@@]21C', '89.9% (inactive)'),
  ('COc1cc2ccc(C(C)=O)cc2cc1OC', '89.4% (inactive)'),
  ('COc1ccc(C2NC(=O)c3cc4c(cc3N2)OCO4)cc1 (stereo unspecified)', '25.3% (inactive)'),
  ('COc1ccc2[nH]cc(C3(c4c[nH]c5ccc(OC)cc45)C(=O)Nc4ccc(F)cc43)c2c1', '82.3% (inactive)'),
  ('O=C(O)c1cc2cc(OCc3ccccc3)ccc2[nH]1', '79.3% (inactive)'),
  ('ClC1(Cl)C2CCCCCCC21 (stereo unspecified)', '103% (inactive)'),
  ('C[C@@H]1N=C(c2ccc3ccccc3c2)Nc2nc3ccccn3c2C1=O', '48.8% (inactive)'),
  ('CCn1c(=O)c(C(=O)NCCCO)c(O)c2ccccc21', '94.4% (inactive)'),
  ('C#CCNc1nc(NCCNC(=O)CCl)nc(N(C)CCCCc2ccccc2)n1', '91.7% (inactive)'),
  ('c1ccc(-c2nnn(-c3ccccc3)n2)cc1', '94.1% (inactive)');
